system under test: C3b (Homo sapiens)
Construct: the α’NT, MG6^α−8, anchor, and C-terminal complement (CTC) domains of the α-chain that are all shared between C3c and C3b; purchased Complement Technology (Tyler, TX, USA)
test method notes: SPR kinetic binding studies on immobilized C3b
test context: Table 1; amine-reactive immobilized C3b, 25 °C; average±SD of three independent SPR experiments; read-out: KD
Bridge positions count the residues as written; N and C are the ends. Square brackets hold non-standard residues; d marks the D form. Peptide text beside a SMILES is read from it. Trp(1-Me) = Cn1cc(C[C@H](N)C(=O)O)c2ccccc21; NMeI = CC[C@H](C)[C@H](NC)C(=O)O; Sar = CNCC(=O)O
measured endpoint: Kd (nM)

[[record]]
molecule = "CC[C@H](C)[C@H](NC(=O)[C@H](N)Cc1ccc(O)cc1)C(=O)N[C@H]1CSSC[C@@H](C(=O)N(C)[C@H](C(N)=O)[C@@H](C)CC)NC(=O)[C@H](CO)NC(=O)[C@H](Cc2c[nH]cn2)NC(=O)[C@H](C)NC(=O)CN(C)C(=O)[C@H](Cc2c[nH]c3ccccc23)NC(=O)[C@H](CC(=O)O)NC(=O)[C@H](CCC(N)=O)NC(=O)[C@H](Cc2cn(C)c3ccccc23)NC(=O)[C@H](C(C)C)NC1=O [Cp40 R12S] (H-[dY]ICV[Trp(1-Me)]QDW[Sar]AHSC[NMeI]-NH2; disulfide 3-13)"
units_label = "nM"
value_reported = 9.9


----------
system under test: C3b (Homo sapiens, UniProt P01024)
Construct: the α’NT, MG6^α−8, anchor, and C-terminal complement (CTC) domains of the α-chain that are all shared between C3c and C3b; purchased Complement Technology (Tyler, TX, USA)
Sequence (P01024 23-667 limits assumed): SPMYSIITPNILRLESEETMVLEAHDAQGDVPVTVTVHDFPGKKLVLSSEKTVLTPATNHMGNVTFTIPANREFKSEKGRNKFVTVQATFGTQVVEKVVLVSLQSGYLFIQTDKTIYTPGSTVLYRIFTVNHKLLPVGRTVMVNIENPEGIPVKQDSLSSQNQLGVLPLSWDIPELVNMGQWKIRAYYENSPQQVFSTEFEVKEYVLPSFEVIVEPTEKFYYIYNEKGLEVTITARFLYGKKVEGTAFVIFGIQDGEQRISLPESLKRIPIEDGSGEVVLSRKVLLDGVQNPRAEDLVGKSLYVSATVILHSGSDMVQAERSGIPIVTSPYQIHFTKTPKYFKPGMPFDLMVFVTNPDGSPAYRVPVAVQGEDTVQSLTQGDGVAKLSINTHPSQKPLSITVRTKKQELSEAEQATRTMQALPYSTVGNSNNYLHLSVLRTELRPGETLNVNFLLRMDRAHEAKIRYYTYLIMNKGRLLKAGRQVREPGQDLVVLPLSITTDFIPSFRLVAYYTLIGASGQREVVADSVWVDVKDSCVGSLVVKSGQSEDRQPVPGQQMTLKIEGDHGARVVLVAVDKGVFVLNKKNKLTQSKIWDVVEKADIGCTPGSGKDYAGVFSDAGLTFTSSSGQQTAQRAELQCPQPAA
Sequence (P01024 749-1663 limits assumed): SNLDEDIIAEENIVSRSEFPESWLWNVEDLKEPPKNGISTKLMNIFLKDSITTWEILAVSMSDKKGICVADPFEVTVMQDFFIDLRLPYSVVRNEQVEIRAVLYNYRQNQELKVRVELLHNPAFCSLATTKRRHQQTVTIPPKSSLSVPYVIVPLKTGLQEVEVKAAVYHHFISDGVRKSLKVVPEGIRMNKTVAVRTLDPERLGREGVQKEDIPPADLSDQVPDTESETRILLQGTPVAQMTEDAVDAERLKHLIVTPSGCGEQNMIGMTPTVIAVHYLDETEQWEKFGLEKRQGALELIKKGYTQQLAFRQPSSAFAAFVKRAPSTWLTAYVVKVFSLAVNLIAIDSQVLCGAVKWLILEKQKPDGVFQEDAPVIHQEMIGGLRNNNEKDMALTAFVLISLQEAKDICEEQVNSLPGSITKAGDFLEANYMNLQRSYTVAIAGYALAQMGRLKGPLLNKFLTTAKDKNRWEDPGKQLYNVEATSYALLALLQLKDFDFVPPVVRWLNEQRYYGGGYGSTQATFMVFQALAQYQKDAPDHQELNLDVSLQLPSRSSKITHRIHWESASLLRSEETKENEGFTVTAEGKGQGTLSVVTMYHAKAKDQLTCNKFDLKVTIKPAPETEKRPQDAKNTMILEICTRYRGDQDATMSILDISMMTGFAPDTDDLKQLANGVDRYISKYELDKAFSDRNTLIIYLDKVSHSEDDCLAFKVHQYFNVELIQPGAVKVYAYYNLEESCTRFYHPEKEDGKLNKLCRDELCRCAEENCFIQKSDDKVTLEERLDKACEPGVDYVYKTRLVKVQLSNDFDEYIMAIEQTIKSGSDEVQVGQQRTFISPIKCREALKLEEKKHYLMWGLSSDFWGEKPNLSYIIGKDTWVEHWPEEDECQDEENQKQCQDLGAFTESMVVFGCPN
test method notes: SPR kinetic binding studies on immobilized C3b
test context: source data of Table 1, single SPR dataset 1; read-out: KD, Dataset 1
pKd: −log10 of the molar value. Bridge positions count the residues as written; N and C are the ends. Square brackets hold non-standard residues; d marks the D form. Peptide text beside a SMILES is read from it. Trp(1-Me) = Cn1cc(C[C@H](N)C(=O)O)c2ccccc21; NMeI = CC[C@H](C)[C@H](NC)C(=O)O; Sar = CNCC(=O)O
measured endpoint: pKd

[[record]]
compound = "CC[C@H](C)[C@H](NC(=O)[C@H](N)Cc1ccc(O)cc1)C(=O)N[C@H]1CSSC[C@@H](C(=O)N(C)[C@H](C(N)=O)[C@@H](C)CC)NC(=O)[C@H](CCCNC(=N)N)NC(=O)[C@H](Cc2c[nH]cn2)NC(=O)[C@H](C)NC(=O)CNC(=O)[C@H](Cc2c[nH]c3ccccc23)NC(=O)[C@H](CC(=O)O)NC(=O)[C@H](CCC(N)=O)NC(=O)[C@H](Cc2cn(C)c3ccccc23)NC(=O)[C@H](C(C)C)NC1=O [Cp40 Sar9G]"
measured_endpoint = "pKd"
value_reported = 9.04

[[record]]
compound = "CC[C@H](C)[C@H](NC(=O)[C@H](C)N)C(=O)N[C@H]1CSSC[C@@H](C(=O)N(C)[C@H](C(N)=O)[C@@H](C)CC)NC(=O)[C@H](CCCNC(=N)N)NC(=O)[C@H](Cc2c[nH]cn2)NC(=O)[C@H](C)NC(=O)CN(C)C(=O)[C@H](Cc2c[nH]c3ccccc23)NC(=O)[C@H](CC(=O)O)NC(=O)[C@H](CCC(N)=O)NC(=O)[C@H](Cc2cn(C)c3ccccc23)NC(=O)[C@H](C(C)C)NC1=O [Cp40 y1A] (H-AICV[Trp(1-Me)]QDW[Sar]AHRC[NMeI]-NH2; disulfide 3-13)"
measured_endpoint = "pKd"
value_reported = 8.39

[[record]]
compound = "CC[C@H](C)[C@H](NC(=O)[C@H](N)Cc1ccc(O)cc1)C(=O)N[C@H]1CSSC[C@@H](C(=O)N(C)[C@H](C(N)=O)[C@@H](C)CC)NC(=O)[C@H](CO)NC(=O)[C@H](Cc2c[nH]cn2)NC(=O)[C@H](C)NC(=O)CN(C)C(=O)[C@H](Cc2c[nH]c3ccccc23)NC(=O)[C@H](CO)NC(=O)[C@H](CCC(N)=O)NC(=O)[C@H](Cc2cn(C)c3ccccc23)NC(=O)[C@H](C(C)C)NC1=O [Cp40 D7S/R12S] (H-[dY]ICV[Trp(1-Me)]QSW[Sar]AHSC[NMeI]-NH2; disulfide 3-13)"
measured_endpoint = "pKd"
value_reported = 6.93

